target: recombinant DCAF1-WT (a.a.'s 1046-1396) (Homo sapiens, UniProt Q9Y4B6); construct: form of DCAF1 containing the WD40 domain (amino acids (a.a.'s) 1046-1396); assay: gel-ABPP with recombinant purified DCAF1-WT doped into HEK293T cell proteome; conditions: gel-ABPP, 2 h pre-treatment, 95% C.I.=13-38 μM; read-out: in vitro target engagement value (TE50) for labeling of DCAF1
Sequence (Q9Y4B6 1046-1396): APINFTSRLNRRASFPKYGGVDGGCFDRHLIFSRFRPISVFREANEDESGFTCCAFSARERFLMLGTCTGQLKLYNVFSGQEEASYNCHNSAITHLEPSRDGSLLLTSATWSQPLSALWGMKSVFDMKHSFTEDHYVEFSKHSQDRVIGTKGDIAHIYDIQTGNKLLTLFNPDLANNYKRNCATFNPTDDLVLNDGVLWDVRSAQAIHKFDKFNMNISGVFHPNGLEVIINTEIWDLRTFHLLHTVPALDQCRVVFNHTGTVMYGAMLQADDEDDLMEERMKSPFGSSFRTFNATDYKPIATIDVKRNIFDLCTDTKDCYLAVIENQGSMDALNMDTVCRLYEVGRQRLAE
Sequence (Q16531 whole entry partner, the tested form may be a part): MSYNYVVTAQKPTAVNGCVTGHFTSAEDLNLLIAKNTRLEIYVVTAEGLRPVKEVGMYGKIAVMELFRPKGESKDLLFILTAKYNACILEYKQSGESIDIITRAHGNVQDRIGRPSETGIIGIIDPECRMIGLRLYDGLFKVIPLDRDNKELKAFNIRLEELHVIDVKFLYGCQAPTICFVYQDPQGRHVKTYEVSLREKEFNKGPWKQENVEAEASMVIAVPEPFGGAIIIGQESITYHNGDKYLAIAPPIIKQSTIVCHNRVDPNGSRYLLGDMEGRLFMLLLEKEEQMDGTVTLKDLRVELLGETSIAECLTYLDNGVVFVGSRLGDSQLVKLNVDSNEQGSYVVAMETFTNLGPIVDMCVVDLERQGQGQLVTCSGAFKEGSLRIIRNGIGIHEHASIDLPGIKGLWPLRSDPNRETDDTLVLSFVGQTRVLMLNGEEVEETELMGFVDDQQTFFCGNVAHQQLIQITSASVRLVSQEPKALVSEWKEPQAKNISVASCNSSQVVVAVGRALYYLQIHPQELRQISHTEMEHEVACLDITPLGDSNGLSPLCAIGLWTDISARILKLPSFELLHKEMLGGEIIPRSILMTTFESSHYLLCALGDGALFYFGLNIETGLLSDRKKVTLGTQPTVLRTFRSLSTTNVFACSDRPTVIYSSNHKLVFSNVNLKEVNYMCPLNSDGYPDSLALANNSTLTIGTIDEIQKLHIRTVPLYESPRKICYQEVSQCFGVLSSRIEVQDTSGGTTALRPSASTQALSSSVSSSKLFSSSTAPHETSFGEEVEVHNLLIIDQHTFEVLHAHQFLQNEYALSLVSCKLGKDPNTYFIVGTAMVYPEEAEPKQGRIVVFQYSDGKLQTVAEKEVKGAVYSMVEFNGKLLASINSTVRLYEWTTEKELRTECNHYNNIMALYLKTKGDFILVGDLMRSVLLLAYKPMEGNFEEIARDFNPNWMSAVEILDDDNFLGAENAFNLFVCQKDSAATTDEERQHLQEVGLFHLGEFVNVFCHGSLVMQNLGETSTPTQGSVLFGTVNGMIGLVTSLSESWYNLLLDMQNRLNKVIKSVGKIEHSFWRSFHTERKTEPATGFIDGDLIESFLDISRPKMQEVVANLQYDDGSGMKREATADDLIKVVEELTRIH
pIC50: −log10 of the molar value.
value.kind: pIC50

QUERY: Please list pIC50 recorded for the compound C=CC(=O)N1C[C@H](c2ccc(Br)cc2)[C@@H]1C(=O)Nc1cccc2cccnc12 [MY-1B]
RESULT: ~4.60

====

target: recombinant DCAF1-WT (a.a.'s 1046-1396) (Homo sapiens, UniProt Q9Y4B6); construct: form of DCAF1 containing the WD40 domain (amino acids (a.a.'s) 1046-1396); made in house; test: gel-ABPP with recombinant purified DCAF1-WT doped into HEK293T cell proteome; assay type: binding; conditions: 2 h, then MY-11B 25 μM 1 h; YT41S and YT47S at single concentration 100 μM
value.kind: inhibition of MY-11B probe reactivity with recombinant DCAF1

>>> endpoint_result("C=CC(=O)C1C[C@@H](c2ccc(C(=O)NCCOCCOCCNC(=O)COc3cccc([C@@H](CCc4ccc(OC)c(OC)c4)OC(=O)[C@@H]4CCCCN4C(=O)C(=O)C(C)(C)CC)c3)cc2)[C@H]1C(=O)Nc1cccc2cccnc12 (stereo partly shown) [YT41S]")
"did not impair"
>>> endpoint_result("C=CC(=O)N1C[C@@H](c2ccc(C(=O)NCCOCCOCCOCCNC(=O)COc3cccc([C@@H](CCc4ccc(OC)c(OC)c4)OC(=O)[C@@H]4CCCCN4C(=O)C(=O)C(C)(C)CC)c3)cc2)[C@H]1C(=O)Nc1cccc2cccnc12 [YT47S]")
"did not impair"

Measured values drawn from patent US20260083722A1 for this set.
